target.of.assay: T1, soluble human insulin receptor-immunoglobulin heavy chain chimera (sIR-Fc) (human, UniProt P06213 28-956, limits assumed, Eu3+ (LANCE) label in the TR-FRET assays)
T1 construct: extracellular domain; Construct of Bass et al., 1996; also called HIR-immunoglobulin heavy chain chimera; not shown: immunoglobulin heavy chain constant domains
assay.notes: TR-FRET on Eu-sIR-Fc, competitor b-S175

binder: S380 (C-terminal Lig′ joined to chemical linker 9, C-C dimer through chemical linker 9; also called (EE-short-S175-Lig)2-9) peptide 1: EEDWLQRNANFYDWFVAELX peptide 2: EEDWLQRNANFYDWFVAELX
IC50 / µM: 0.01

binder: S337 (C-terminal Lig′ joined to chemical linker 23, C-C dimer through chemical linker 23; also called (RP9-Lig)2-23) peptide 1: GSLDESFYDWFERQLGKKX peptide 2: GSLDESFYDWFERQLGKKX
IC50 / µM: 0.0002

binder: FHENFYDWFVRQVSKK (also called D117) [H2C]
IC50 / µM: 0.41
